Data credit: PubChem BioAssay

Tested on: wheat germ agglutinin (Triticum aestivum), Alexa647-labelled
assayProcedure: wheat germ agglutinin binders on compound microarrays, profiling panel, artefact control for SMM control-protein annotation, biochemical, small-molecule microarray, 635/667 nm fluorescence (AID 1140);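 note: score merges 667 nm feature emission with signal to noise over triplicate slides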
conditionSummary: WGA-A647 binding, 635 nm fluorescence, higher = more signal
readoutType: composite z-score
Give bare numbers.

Below: 6 compounds and their reported composite z-score.
1) C[C@H]1CC[C@@H](C(=O)O)N[C@@H]1c1ccc(C#CCN(C)C)cc1 = 0.117
2) COc1ccc(O[C@@H]2[C@H](O)CO[C@H]2C=CC#Cc2ccccc2)cc1 = 0.535
3) CO[C@@H]1COC(=O)CC=C[C@@H](C)[C@@H]2C=C[C@@H](O)[C@@H](COC(=O)CC=C[C@H]1C)O2 = -0.38
4) COc1ccccc1CN1C(=O)c2ccccc2[C@@H](C(=O)NCC(F)(F)F)[C@@H]1c1ccc(CO)cc1 = 0.185
5) CC(C)(C)OC(=O)CC[C@]1(C(=O)NCc2ccccc2)N=C(c2ccc(OCCCO)cc2)O[C@H]1c1ccccc1 = 0.732
6) O=C1[C@H]2[C@H]3[C@H](O)[C@H](O)CC(=NOC[C@@H](O)COCc4ccco4)[C@@H]3CC[C@H]2C(=O)N1c1ccc(F)cc1F = -0.385

Provide composite z-score values for the following items, in order.
1. CC(=O)OC[C@H]1O[C@H](CCON=C[C@@H](C)[C@H](OCc2ccccc2)C(C)C)C=C[C@@H]1OC(C)=O
2. CCOC(=O)[C@H](CC(C)C)NC(=O)CCC1CC(OC(=O)NCc2cccc3ccccc23)CC2(CCCC(COC(=O)NCCN3CCOCC3)O2)O1 (some centres not stated)
3. CO[C@H]1COC(=O)[C@H](C)NC(=O)[C@@H](C)COC(=O)CC=C[C@@H]1C
4. CCCCc1nc2c(c3c1C[C@H](C)OC3)CN(CCC(C)C)CC2
5. C#CCCCON=C1C[C@@H](O)[C@@H](O)[C@@H]2[C@@H]3C(=O)N(Cc4ccccc4)C(=O)[C@@H]3CC[C@H]12
6. CCOC(=O)[C@H](Cc1ccccc1)NC(=O)CCC1CC(OC(=O)NCc2ccc3c(c2)OCO3)CC2(CCCC(COC(=O)NCc3cccc(C(F)(F)F)c3)O2)O1 (some centres not stated)

RESULT:
0.156
0.255
-0.114
0.399
0.253
0.229

Provide composite z-score values for the following items, in order.
1. COC(=O)[C@@H]1CC[C@H](C)[C@@H](c2ccc(C)cc2)N1C(=O)c1ccc(C=NOC[C@@H](O)COCc2ccco2)cc1
2. COC(=O)CC=C[C@H](C)[C@@H](OCc1ccccc1Br)C(C)C
3. Cc1ccc(S(=O)(=O)N[C@@H]2COC(=O)[C@H](C)COC(=O)CC=C[C@H]2C)cc1

RESULT:
1: -0.893; 2: 0.0141; 3: -0.277

Provide composite z-score values for the following items, in order.
1. COC(=O)CC=C[C@H](C)[C@H](CO)NS(=O)(=O)c1ccc(C)cc1
2. C=CC[C@]1(C(=O)NCc2ccccc2)N=C(c2ccc(OCCCO)cc2)O[C@H]1c1ccccc1

RESULT:
[-0.037, 0.366]

====

assayProcedure: mitochondrial membrane potential change in A549 cells, profiling panel, cell-based, JC-1 fluorescence, basal, 24 h, 100 nL (AID 1138);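 note: A549 lung adenocarcinoma cells under basal conditions with no added stimulus; test concentration not given here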
conditionSummary: higher = more signal
Use 1.0 when the recorded z-score is no lower than 0.6; use 0.0 when it is lower.

The following compounds have reported results that may help.
1. O=C(NN=C1C[C@@H](O)[C@@H](O)[C@@H]2[C@@H]3C(=O)N(c4cccc(Oc5ccccc5)c4)C(=O)[C@@H]3CC[C@H]12)OCc1ccccc1 = 0.0
2. CCOC(=O)C[C@H]1[C@H](OC(=O)c2ccc(C(=O)c3ccccc3)cc2)[C@@H](NC(=O)c2ccc(-c3ccccc3)cc2)c2cc(OCCCO)ccc2N1C(=O)c1ccc2ccccc2n1 = 0.0
3. CC(C)=CCCC(C)=CCON=C1[C@H]2CCn3c(=O)n(C)c(=O)n3[C@H]2[C@H](O)[C@@H]2O[C@H]12 = 1.0

We next turn to a different compound, shown below.
QUERY: // inclusive: z-score at least 0.6? input: CC(=O)OC[C@H]1O[C@@H](ON=C(C)CCN2CCc3nc(-c4ccccc4)c(-c4ccccc4)cc3C2)[C@H](OC(C)=O)[C@@H](OC(C)=O)[C@@H]1OC(C)=O
RESULT: 1.0
